- System: 201T
- Assay Method Text: relative viability (nuclei count vs DMSO), 5 days (fraction); higher = more cells survive
- Experimental Conditions: first compound 0.4 µM
Measurement Kind: relative viability
Answer with the value's number alone.

Compound: Cc1sc2c(c1C)C(c1ccc(Cl)cc1)=N[C@@H](CC(=O)OC(C)(C)C)c1nnc(C)n1-2 [JQ1] + NC(=O)Nc1cc(-c2cccc(F)c2)sc1C(=O)N[C@H]1CCCNC1 [AZD7762] (partner 0.2 µM)
relative viability: 0.7

Compound: Cc1sc2c(c1C)C(c1ccc(Cl)cc1)=N[C@@H](CC(=O)OC(C)(C)C)c1nnc(C)n1-2 [JQ1] + Nc1ncn([C@H]2C[C@H](O)[C@@H](CO)O2)c(=O)n1 [Decitabine] (partner 2 µM)
relative viability: 0.694

Compound: Cc1sc2c(c1C)C(c1ccc(Cl)cc1)=N[C@@H](CC(=O)OC(C)(C)C)c1nnc(C)n1-2 [JQ1] + CC(C)C[C@H](NC(=O)[C@H](Cc1ccccc1)NC(=O)c1cnccn1)B(O)O [Bortezomib] (partner 0.002 µM)
relative viability: 1.02

# return recorded relative viability for input Cc1sc2c(c1C)C(c1ccc(Cl)cc1)=N[C@@H](CC(=O)OC(C)(C)C)c1nnc(C)n1-2 [JQ1] + CC(=O)Nc1cccc(-n2c(=O)n(C3CC3)c(=O)c3c(Nc4ccc(I)cc4F)n(C)c(=O)c(C)c32)c1 [Trametinib] (partner 0.02 µM)
0.538
